- System: COR-L105 (Lung Adenocarcinoma)
- experimental details: combination Emax (second highest fraction inhibited in the dose matrix, 72 h); higher = more inhibition; extreme values may be limits of the assay

{"columns": ["compound", "combination Emax"],
 "data": [
  ["CC1(C)CCC(CN2CCN(c3ccc(C(=O)NS(=O)(=O)c4ccc(NCC5CCOCC5)c([N+](=O)[O-])c4)c(Oc4cnc5[nH]ccc5c4)c3)CC2)=C(c2ccc(Cl)cc2)C1 [Venetoclax] + C[C@@H]1COCCN1C2=NC(=NC(=C2)C3(CC3)[S@](=N)(=O)C)C4=C5C=CNC5=NC=C4 [AZD6738] (first compound max 1 µM, 7x7, partner max 10 µM)", 0.421],
  ["CN(CCO)CC[C@H](CSc1ccccc1)Nc1ccc(S(=O)(=O)NC(=O)c2ccc(N3CCC([C@@H](O)c4ccccc4-c4ccc(Cl)cc4)CC3)cc2)cc1S(=O)(=O)C(F)(F)F [AZD4320] + Cc1cc2ncnn2cc1Nc1ncc2c(n1)n(C1CCOCC1)c(=O)n2C [AZD7648] (first compound max 1 µM, 7x7, partner max 10 µM)", 0.253],
  ["COc1nnc2ccc(N3CCC(c4ccc(OCCN5CCN(C)C(=O)[C@H]5C)cc4)CC3)nn12 [AZD5153] + C=CCn1c(=O)c2cnc(Nc3ccc(N4CCN(C)CC4)cc3)nc2n1-c1cccc(C(C)(C)O)n1 [AZD1775] (first compound max 1 µM, partner max 1 µM)", 0.474]
]}
